Please go through the items and note down their log10(IC50).
- tested_system: human V2 receptor (Homo sapiens)
- Construct: expressed in transfected cells; host or cells: CHO K1 (ATCC) expressing firefly luciferase under a CRE-responsive promoter
- assay: Cellular in vitro assay for determining vasopressin receptor activity, V2 receptor cell line (CHO, CRE-luciferase)
- Assay type: cell-based
- test_parameters: CHO cell line transfected with human V2 receptor; [Arg8]-vasopressin at EC50 concentration, 3 hours; read-out: IC50 hV2
Response schema: value (number) is log10 of IC50 in units of nM.

(Q) Fill in reported log10(IC50) for this entry: O=C(c1cccc(Cl)c1-n1cnc(Cn2nc(-c3ccc(Cl)cc3)n(C[C@H](O)C(F)(F)F)c2=O)n1)N1CCCCC1
(A) 3.35

(Q) Determine from records and report log10(IC50) for O=C(c1cccc(Cl)c1-n1cnc(Cn2nc(-c3ccc(Cl)cc3)n(C[C@H](O)C(F)(F)F)c2=O)n1)N1CCOC(C(F)(F)F)C1 (mixture of isomers)
(A) 3.60

(Q) # return recorded log10(IC50) for input CC1CCC(C)C1NC(=O)c1ccccc1-n1cnc(Cn2nc(-c3ccc(Cl)cc3)n(C[C@H](O)C(F)(F)F)c2=O)n1 (stereo partly drawn)
(A) 2.27

(Q) Respond only with log10(IC50) recorded for CC(C(=O)Nc1ncccc1-n1cnc(Cn2nc(-c3ccc(Cl)cc3)n(C[C@H](O)C(F)(F)F)c2=O)n1)n1cncn1 (stereo partly drawn)
(A) 3.29

(Q) Tell me measured log10(IC50) for O=C(NCc1cccs1)c1ccccc1-n1cnc(Cn2nc(-c3ccc(Cl)cc3)n(C[C@H](O)C(F)(F)F)c2=O)n1 please.
(A) 2.56

(Q) Give the measured log10(IC50) for O=C(CC1CCCCO1)Nc1ncccc1-n1cnc(Cn2nc(-c3ccc(Cl)cc3)n(C[C@H](O)C(F)(F)F)c2=O)n1 (stereo partly drawn)
(A) 2.80

----------
- tested_system: human V2 receptor (Homo sapiens, UniProt P30518)
- Construct: expressed in transfected cells; host or cells: CHO K1 (ATCC) expressing firefly luciferase under a CRE-responsive promoter
- Sequence (P30518 whole entry): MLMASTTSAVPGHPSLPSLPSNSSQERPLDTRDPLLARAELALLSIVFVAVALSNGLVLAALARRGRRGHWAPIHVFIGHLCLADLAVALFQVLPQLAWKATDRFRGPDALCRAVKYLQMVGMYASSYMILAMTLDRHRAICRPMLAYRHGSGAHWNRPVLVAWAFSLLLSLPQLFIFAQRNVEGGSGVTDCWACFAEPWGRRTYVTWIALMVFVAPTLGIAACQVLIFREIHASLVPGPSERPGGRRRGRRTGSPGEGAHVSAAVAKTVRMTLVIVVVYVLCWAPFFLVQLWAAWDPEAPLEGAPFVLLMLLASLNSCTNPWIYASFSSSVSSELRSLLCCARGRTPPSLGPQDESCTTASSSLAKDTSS
- assay: Cellular in vitro assay for determining vasopressin receptor activity, V2 receptor cell line (CHO, CRE-luciferase)
- Type: cell-based
- test_parameters: CHO cell line transfected with human V2 receptor; [Arg8]-vasopressin at EC50 concentration, 3 hours; read-out: IC50 hV2
Please respond with reported IC50 for every item in the list.
The reply should be a number in nM, with the unit left off.

(Q) Enter measured IC50, system human V2 receptor (Homo sapiens, UniProt P30518), for the molecule shown: O=C(Nc1ncccc1-n1cnc(Cn2nc(-c3ccc(Cl)cc3)n(C[C@H](O)C(F)(F)F)c2=O)n1)C1CC1F (stereo partly drawn) [Example 85]
(A) 4950

(Q) Output reported IC50 of the molecule O=C(N[C@H]1C[C@H]1F)c1cccc(Cl)c1-n1cnc(Cn2nc(-c3ccc(Cl)cc3)n(C[C@H](O)C(F)(F)F)c2=O)n1 (racemic) [Example 389] on human V2 receptor (Homo sapiens, UniProt P30518).
(A) 835

(Q) Give reported IC50 for Cc1cc(CC(=O)Nc2ncccc2-n2cnc(Cn3nc(-c4ccc(Cl)cc4)n(C[C@H](O)C(F)(F)F)c3=O)n2)on1 [Example 135] (human V2 receptor (Homo sapiens, UniProt P30518))
(A) 930

(Q) Supply IC50 measured with human V2 receptor (Homo sapiens, UniProt P30518) for CC1(C)CCCN(C(=O)c2ccccc2-n2cnc(Cn3nc(-c4ccc(Cl)cc4)n(C[C@H](O)C(F)(F)F)c3=O)n2)C1 [Example 327] .
(A) 495

(Q) Please look at O=C(CC(F)(F)F)Nc1ccncc1-n1cnc(Cn2nc(-c3ccc(Cl)cc3)n(C[C@H](O)C(F)(F)F)c2=O)n1 [Example 27] and tell me its recorded IC50 on human V2 receptor (Homo sapiens, UniProt P30518).
(A) 283

(Q) Check human V2 receptor (Homo sapiens, UniProt P30518) data and give IC50 for O=C(Cc1ccccc1)Nc1ncccc1-n1cnc(Cn2nc(-c3ccc(Cl)cc3)n(C[C@H](O)C(F)(F)F)c2=O)n1 [Example 97] .
(A) 2050

(Q) Return reported IC50 for target or system human V2 receptor (Homo sapiens, UniProt P30518), item O=C(NCC(O)C(F)(F)F)c1cccc(Cl)c1-n1cnc(Cn2nc(-c3ccc(Cl)cc3)n(C[C@@H](O)C(F)(F)F)c2=O)n1 (mixture of isomers) [Example 368] .
(A) 2100

(Q) # return IC50 for O=C(Nc1cc(O)[nH]n1)c1ccccc1-n1cnc(Cn2nc(-c3ccc(Cl)cc3)n(C[C@H](O)C(F)(F)F)c2=O)n1 [Example 212] , test system: human V2 receptor (Homo sapiens, UniProt P30518)
(A) 575

(Q) Output reported IC50 of the molecule CC1(O)CCN(c2ccncc2-n2cnc(Cn3nc(-c4ccc(Cl)cc4)n(C[C@H](O)C(F)(F)F)c3=O)n2)C1 (mixture of isomers) [Example 13] on human V2 receptor (Homo sapiens, UniProt P30518).
(A) 90.6

(Q) Please respond with reported IC50 (system human V2 receptor (Homo sapiens, UniProt P30518)) for O=C(Nc1cccnc1-n1cnc(Cn2nc(-c3ccc(Cl)cc3)n(C[C@H](O)C(F)(F)F)c2=O)n1)C1CC1(F)F (mixture of isomers) [Example 41] .
(A) 225

(Q) # lookup: human V2 receptor (Homo sapiens, UniProt P30518) IC50, key = NC(=O)[C@@H]1CC(F)(F)CN1C(=O)c1cccc(Cl)c1-n1cnc(Cn2nc(-c3ccc(Cl)cc3)n(C[C@@H](O)C(F)(F)F)c2=O)n1 [Example 396]
(A) 32000

(Q) State IC50 on human V2 receptor (Homo sapiens, UniProt P30518). Entry: O=C(c1ccccc1-n1cnc(Cn2nc(-c3ccc(Cl)cc3)n(C[C@H](O)C(F)(F)F)c2=O)n1)N1CCCCCC1 [Example 350]
(A) 265

----------
- tested_system: human V1a receptor (Homo sapiens, UniProt P37288)
- Construct: expressed in transfected cells; host or cells: CHO K1 (ATCC), also stably transfected with a modified aequorin
- Sequence (P37288 whole entry): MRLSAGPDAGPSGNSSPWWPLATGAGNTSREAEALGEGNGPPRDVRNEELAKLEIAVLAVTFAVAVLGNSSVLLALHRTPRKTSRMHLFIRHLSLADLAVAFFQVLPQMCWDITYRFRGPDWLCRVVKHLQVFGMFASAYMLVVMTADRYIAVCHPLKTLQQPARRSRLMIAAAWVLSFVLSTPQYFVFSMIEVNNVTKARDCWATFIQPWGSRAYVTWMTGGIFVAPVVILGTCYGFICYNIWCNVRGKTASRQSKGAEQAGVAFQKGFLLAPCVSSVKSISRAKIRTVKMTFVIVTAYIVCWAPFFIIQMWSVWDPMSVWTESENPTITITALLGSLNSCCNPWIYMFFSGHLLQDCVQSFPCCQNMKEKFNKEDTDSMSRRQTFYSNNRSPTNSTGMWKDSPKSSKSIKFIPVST
- assay: Cellular in vitro assay for determining vasopressin receptor activity, V1a receptor cell line (CHO, aequorin luminescence)
- Format: cell-based
- test_parameters: selectivity ratio IC50 hV2 / IC50 hV1a
Hi! Just check whether ratio IC50 hV2/hV1a is below 30. Below gives satisfied, equal or above gives not satisfied.

(Q) Problem: For the molecule Cc1ccccc1C(=O)Nc1ncccc1-n1cnc(Cn2nc(-c3ccc(Cl)cc3)n(C[C@H](O)C(F)(F)F)c2=O)n1 , is ratio IC50 hV2/hV1a under 30?
(A) satisfied

(Q) Does the reported ratio IC50 hV2/hV1a of Cc1cc(NC(=O)c2ccccc2-n2cnc(Cn3nc(-c4ccc(Cl)cc4)n(C[C@H](O)C(F)(F)F)c3=O)n2)n(C)n1 stay below 30?
(A) not satisfied

(Q) Strictly below 30: is that where ratio IC50 hV2/hV1a of O=C(Nc1cccnc1-n1cnc(Cn2nc(-c3ccc(Cl)cc3)n(C[C@H](O)C(F)(F)F)c2=O)n1)C1CC(F)(F)C1 sits?
(A) not satisfied

(Q) For NC(=O)CNC(=O)c1ccccc1-n1cnc(Cn2nc(-c3ccc(Cl)cc3)n(C[C@H](O)C(F)(F)F)c2=O)n1 , is the recorded ratio IC50 hV2/hV1a below the cut-off of 30?
(A) not satisfied

(Q) Dear colleague, could you confirm whether ratio IC50 hV2/hV1a of O=C(NC1CC1)c1cccc(Cl)c1-n1cnc(Cn2nc(-c3ccc(Cl)cc3)n(C[C@H](O)C(F)(F)F)c2=O)n1 falls below 30? Thanks.
(A) not satisfied

(Q) Criterion: ratio IC50 hV2/hV1a strictly below 30. Is it met by O=C(Nc1ncccc1-n1cnc(Cn2nc(-c3ccc(Cl)cc3)n(C[C@H](O)C(F)(F)F)c2=O)n1)C1CC1F (single isomer, unassigned) [Example 77] ?
(A) not satisfied

(Q) Please check: ratio IC50 hV2/hV1a for O=C(CC1CCCO1)Nc1ncccc1-n1cnc(Cn2nc(-c3ccc(Cl)cc3)n(C[C@H](O)C(F)(F)F)c2=O)n1 (stereo partly shown) , strictly under 30 or not?
(A) not satisfied

(Q) Just wondering, is ratio IC50 hV2/hV1a of CC1(NC(=O)c2cccc(Cl)c2-n2cnc(Cn3nc(-c4ccc(Cl)cc4)n(C[C@@H](O)C(F)(F)F)c3=O)n2)CC1 below 30?
(A) not satisfied

(Q) Does Cc1cnc(NC(=O)c2ccccc2-n2cnc(Cn3nc(-c4ccc(Cl)cc4)n(C[C@H](O)C(F)(F)F)c3=O)n2)s1 have ratio IC50 hV2/hV1a strictly under 30?
(A) satisfied

(Q) Is the reported ratio IC50 hV2/hV1a for O=C(NCC(F)(F)F)c1ccncc1-n1cnc(Cn2nc(-c3ccc(Cl)cc3)n(C[C@H](O)C(F)(F)F)c2=O)n1 strictly below 30?
(A) not satisfied

(Q) hey, is ratio IC50 hV2/hV1a for O=C(NC1CC1(F)F)c1cccc(Cl)c1-n1cnc(Cn2nc(-c3ccc(Cl)cc3)n(C[C@@H](O)C(F)(F)F)c2=O)n1 (mixture of isomers) lower than 30 or not?
(A) not satisfied

(Q) Dear reviewer, please state whether CC[C@H](C)C(=O)Nc1ncccc1-n1cnc(Cn2nc(-c3ccc(Cl)cc3)n(C[C@H](O)C(F)(F)F)c2=O)n1 has ratio IC50 hV2/hV1a strictly beneath 30.
(A) satisfied

(Q) Threshold test, ratio IC50 hV2/hV1a < 30: CC1CC(C)CN(C(=O)c2ccccc2-n2cnc(Cn3nc(-c4ccc(Cl)cc4)n(C[C@H](O)C(F)(F)F)c3=O)n2)C1 (mixture of isomers)
(A) not satisfied
